These data points were gathered from PubChem BioAssay (NCI).

- System: NCI-H522 lung
- procedureText: NCI tumour cell line growth inhibition, 48 h
propertyName: TGI (µM)
Please give a number only; it is taken to be in µM.

Answered examples (5):
- CC(C)(C)OC(=O)CN1CCc2c(sc3ncnc(N/N=C/c4cccc5ccccc45)c23)C1: 12.4
- O=[N+]([O-])C(=C(Nc1ccccc1)Nc1ccccc1)/C(Cl)=C(\Cl)Br: 8.72
- C=CCC(N[C@H](CO)c1ccccc1)c1cn(S(=O)(=O)c2ccc(C)cc2)c2ccccc12 (some centres undefined): 47.7
- O=C(O)c1cc(Cc2ccc(O)c(C(=O)O)c2)ccc1O (tested in a mixture with another compound): 33.8
- O=S(=O)(NCCNc1cc(-c2cn(-c3ccccc3)nc2-c2cccc(O)c2)ccn1)c1ccc(Cl)cc1: 5.79

(Q) Any idea what TGI was measured for CC(=O)OC1CCC2(C)C(=CCC3C4CCC5(OC6CC(C)CN(C(C)=O)C6C5C)C(C)=C4C(=O)C32)C1 (centres undefined) ?
(A) 29.4

(Q) Item: CC1(C)CCC[C@@]2(C)C1C(=O)[C@@H]1O[C@]1(C)[C@@H]2CO (some centres undefined)
(A) 93.1

(Q) Next up: CCN(CC)Cc1cc(Nc2c3ccccc3nc3c4ccccc4n(C)c23)ccc1O
(A) 6.39

(Q) Also need COc1cc(C)c(C)c(OC(=O)c2c(C)c(C)c(OC)c(C)c2OC)c1C , thanks.
(A) 4.71

(Q) Also C=C1CC2(CCCC3(CC(=C)C(=O)O3)C2(C)C)OC1=O (centres undefined) ?
(A) 3.7

(Q) Moving on to the next compound: CC(C(=O)c1ccc(Cl)cc1)C1OC(=O)C(Cl)=C1Cl (centres undefined)
(A) 37.7
